- Test system: Plasmodium falciparum
- Method: GSK_TCMDC: Inhibition of Plasmodium falciparum Dd2 in whole red blood cells, using parasite LDH activity as an index of growth. Test compounds present at 2uM
- Type: functional
In plain terms, low Inhibition, meaning strictly below 90%, gives yes (1), and everything else gives no (0).

Below, 2 compounds whose answers are already recorded.
{"Compound": "CN(C)c1cccc(CN2CC=C(c3c[nH]c4ccc(Cl)cc34)CC2)c1", "Tested On": "Plasmodium falciparum", "Group": "yes (1)"}
{"Compound": "O=C(/C=C/c1ccc(F)c(C(F)(F)F)c1)N1CCC(CN2CCC(c3c[nH]c4ccccc34)CC2)CC1", "Tested On": "Plasmodium falciparum", "Group": "yes (1)"}

I wonder whether NCc1cccc(-c2cccc(CN(C(=O)Nc3ccccc3)C3CCN(Cc4ccccc4)CC3)c2)c1.O=C(O)C(F)(F)F has Inhibition below 90%. Can you tell?
yes (1)

Determine whether this compound shows Inhibition lower than 90% (ties excluded): OC(CNCc1ccccc1OC(F)F)c1cccc(C(F)(F)F)c1 (stereo unspecified)
yes (1)

----------
- System: HepG2
- Method: GSK_TCMDC: Percent inhibition of human HepG2 cell line. Test compounds present at 10uM.
- Type: functional
Reported Inhibition values are given for each entry in this list.

Study these solved cases before continuing.
{"Molecule": "Cc1cc(C(=O)NC2CCN(CC3(c4ccc(Cl)cc4)CCC3)CC2)on1", "Inhibition": "5%"}
{"Molecule": "O=C1COc2ccccc2N1CCN1CCC(NCc2ccc(-c3cccs3)cc2)CC1", "Inhibition": "37%"}
{"Molecule": "CC(C)NC(=O)Cn1cc(C2CCN(CC3CCN(C(=O)/C=C/c4ccc(Cl)c(Cl)c4)CC3)CC2)c2ccccc21.O=C(O)C(F)(F)F", "Inhibition": "31%"}
{"Molecule": "O=C(/C=C/c1ccc(Cl)c(Cl)c1)N1CCC(CN2CCC(c3c[nH]c4cc5c(cc34)OCO5)CC2)CC1", "Inhibition": "41%"}
{"Molecule": "C=C[C@H]1CN2CC[C@H]1C[C@H]2[C@H](O)c1cc(/C=C/c2ccc(F)cc2)nc2ccc(OC)cc12.Cl", "Inhibition": "25%"}

For this molecule ( Clc1ccc2nccc(N3CCC(CN4CCC(c5c[nH]c6ccccc56)CC4)CC3)c2c1.O=C(O)C(F)(F)F ), measured Inhibition is 46%

Measured Inhibition of Fc1ccc(N(c2nc(-c3cc(F)cc(C(F)(F)F)c3)cs2)C2CCNCC2)cc1.O=C(O)C(F)(F)F : 35%

Per the records, this molecule ( CC[C@H]1CN2CC[C@H]1C[C@@H]2[C@H](O)c1ccnc2ccc(O)cc12 ) has Inhibition equal to 0%

Noted for COc1ccc(CC(C)NCC(O)c2cccc(Cl)c2F)cc1 (configuration not stated) : its Inhibition reads 3%

Recorded Inhibition (molecule CC[C@H]1CN2CCc3cc(OC)c(OC)cc3[C@@H]2C[C@@H]1C[C@H]1NCCc2c1cc(OC)c(OC)c2Br ): 45%

For this molecule ( O=C(/C=C/c1cccs1)NC1CCC(CN2CCC(c3c[nH]c4ccccc34)CC2)CC1 (configuration not stated) ), measured Inhibition is 33%

get_value(item= O=C(/C=C/c1ccc(Cl)c(Cl)c1)NCC1CCC(CN2CCC(c3c[nH]c4ccccc34)CC2)CC1 (configuration not stated) , readout=Inhibition) returns 54%

----------
- Tested on: Plasmodium falciparum
- Method: GSK_TCMDC: Inhibition of Plasmodium falciparum Dd2 in whole red blood cells, using parasite LDH activity as an index of growth. Test compounds present at 2uM
- Type: functional
Metric Name: Inhibition (%)
Record the value in %, omitting the unit from your answer.

Example compounds with recorded Inhibition:
{"Compound": "CC(=O)N(Cc1cccc(-c2cccc(CNCCc3ccccc3)c2)c1)C1CCN(Cc2ccccc2)CC1.O=C(O)C(F)(F)F", "Inhibition / %": 57}
{"Compound": "O=C(/C=C/c1ccc(O)cc1)NC1CCC(CN2CCC(c3c[nH]c4ccccc34)CC2)CC1 (centres undefined)", "Inhibition / %": 51}
{"Compound": "CC[C@H]1CN2CC[C@@H]1C[C@H]2[C@H](O)c1ccnc2ccc(Cl)cc12.Cl", "Inhibition / %": 98}
{"Compound": "CN(c1cc(NC(=O)c2ccccc2)ccn1)C1CCN(Cc2cccc(F)c2)CC1.O=C(O)C(F)(F)F", "Inhibition / %": 94}
{"Compound": "O=C1Nc2cccc3c2C1(CCCCN1CC=C(c2c[nH]c4ncccc24)CC1)CCC3 (centres undefined)", "Inhibition / %": 80}
{"Compound": "O=C(NC1CCC(CN2CCC(c3c[nH]c4ccccc34)CC2)CC1)c1cc(-c2ccccc2Cl)n(-c2cccc(Cl)c2)n1 (centres undefined)", "Inhibition / %": 24}
{"Compound": "O=[N+]([O-])c1ccc(Oc2c(Cl)cc(S(=O)(=O)N3CCC(CN4CCC(c5c[nH]c6ccccc56)CC4)CC3)cc2Cl)c(Cl)c1", "Inhibition / %": 83}
{"Compound": "Cn1cc(CN2CCC(CCOC(c3ccccc3)c3ccccc3)CC2)cn1", "Inhibition / %": 100}
{"Compound": "COC(=O)c1ccc(CC(C)NCC(O)c2cc(Cl)c(N)c(Cl)c2)cc1 (centres undefined)", "Inhibition / %": 66}
{"Compound": "CCCN(CC(=O)NCCc1ccccc1)c1ccc(C#N)c2ccccc12.O=C(O)C(F)(F)F", "Inhibition / %": 39}

Data point: Cc1cccc(N2CCN(Cc3cc(Cl)ccc3O)CC2)c1C.O=C(O)C(=O)O ; Inhibition = 96

Measured Inhibition, CC[C@H]1CN2CC[C@H]1C[C@H]2[C@H](O)c1cc(N2CCCC2)nc2ccc(OC)cc12 : 100

Recorded result, COC(=O)c1ccc(CC(C)NCC(O)c2ccc3ccc4ccccc4c3c2)cc1.O=C(O)/C=C/C(=O)O (centres undefined) , Inhibition: 97

Noted for CN1CC=C(c2c[nH]c3ccc(OC(=O)c4ccccc4)cc23)C1 : its Inhibition reads 97

The measured Inhibition associated with O=C(/C=C/c1cc(C(F)(F)F)ccc1F)N1CCC(CN2CCC(c3c[nH]c4ccccc34)CC2)CC1 reads 14

----------
- System: Plasmodium falciparum
- Method: GSK_TCMDC: Inhibition of Plasmodium falciparum Dd2 in whole red blood cells, using parasite LDH activity as an index of growth. Test compounds present at 2uM
- Type: functional
Metric Name: Inhibition (%)
All answers are understood in %, so give the number only.

Consider the worked cases shown below.
{"Molecule": "Oc1ccc(CN2CCN(CCOC(c3ccccc3)c3ccccc3)CC2)cc1Cl", "Tested On": "Plasmodium falciparum", "Inhibition / %": 77}
{"Molecule": "CC(C)NC(=O)Cn1cc(C2CCN(CC3CCN(C(=O)/C=C/c4ccc(Cl)c(Cl)c4)CC3)CC2)c2ccccc21.O=C(O)C(F)(F)F", "Tested On": "Plasmodium falciparum", "Inhibition / %": 55}
{"Molecule": "COc1ccccc1CC(C)NCC(O)c1cccc(Cl)c1 (centres undefined)", "Tested On": "Plasmodium falciparum", "Inhibition / %": 98}
{"Molecule": "O=C1COc2ccccc2N1CCN1CCC(NCc2ccc(-c3cccs3)cc2)CC1", "Tested On": "Plasmodium falciparum", "Inhibition / %": 18}
{"Molecule": "COc1ccc(CCNCc2ccc3nc(N)cc(C)c3c2)cc1", "Tested On": "Plasmodium falciparum", "Inhibition / %": 86}
{"Molecule": "CCN(CC)CCN1C(=O)C(O)(c2ccccc2Cl)c2c1cc(C#N)cc2C(F)(F)F (centres undefined)", "Tested On": "Plasmodium falciparum", "Inhibition / %": 19}
{"Molecule": "CC[C@H]1CN2CC[C@@H]1C[C@H]2[C@H](O)c1cc(N2CCC(C(N)=O)CC2)nc2ccc(OC)cc12", "Tested On": "Plasmodium falciparum", "Inhibition / %": 9}
{"Molecule": "CC(=O)N(Cc1ccc(-c2ccc(CNCCc3ccccc3)cc2)cc1)C1CCN(Cc2ccccc2)CC1.O=C(O)C(F)(F)F", "Tested On": "Plasmodium falciparum", "Inhibition / %": 15}

Item: O=C(NC1CCC(CN2CCC(c3c[nH]c4ccccc34)CC2)CC1)c1cc(-c2ccccc2)c(C(F)(F)F)s1 (centres undefined) | Inhibition: 100

Reported Inhibition for Br.CC(Cc1ccc(SC(C)(C)C)cc1)NCC(O)c1cccc(Cl)c1 (centres undefined) was 99

Kindly note the recorded Inhibition for O=C(CSc1ccc(Cl)cc1)NC1CCC(CN2CCC(c3c[nH]c4ccccc34)CC2)CC1 (centres undefined) , which is 21

Inhibition measured on COc1cc(CN2CCN(c3ccnc(N(C)C4CCN(C)CC4)n3)CC2)cc(Cl)c1O = 63

response.value for CCC(C)CN1CCC(N(C)c2cc(NC(=O)c3ccc(F)cc3)ccn2)CC1.O=C(O)C(F)(F)F (centres undefined) (field: Inhibition) = 32

// CCCCCCCCNCC(O)c1ccc(Cl)c(Cl)c1.Cl (centres undefined) : Inhibition value = 87
